Measured values drawn from the supplement of paper PMC9170038 for this set.

System: K4 kissing-loop RNA reporter;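 also: bound reporter read as fluorescence of individual clusters on recovered sequencing chips by microscopy, with normalized cluster intensities fitted with a binding model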
Test: apparent KD of K4 kissing-loop reporter; higher = weaker reporter binding
Conditions: Eterna round: R107; input ligand: none
assay.endpoint: apparent KD of K4 kissing-loop reporter (µM)
Expressed in µM, but write only the number.

Recorded results for 4 sequences are shown here.
1) UGAUACCAGACGGCCGCCACUCCCGUAAGUCAAAGACUUACGAAGAGAAUCGUCCAGUGAUGUUGGAGGACCGGGUCUGGUAUCU [FiskerMod 11 - Jieux - Exclusion - Tryptophan B]: 0.818
2) UUAGUGACAAGUCAGAUUCUGACAAUUGAUACCAGAUAGAAUUCUAUCCCUUGGCAGCAGUGAUGUUGUUGCAAAUAGUCACAUU [AK3 Exc Theophylline A]: 0.251
3) UACAGGGCGAGUGAUGUUUGCUCAUGUGAUACCAGUGCCAUCCAACACCCUUGGCAGCAUGCGGGCAGUGAUGUUGUCCUUGGUU [Exclusion Theophylline A GF11]: 0.28
4) UUAUAUUUUAUAUUUAGAUGAUCUAUAGCACGAGGACCGGUACGGCCGCCACUCGAGUGAUGUUCGAGAGCUAUAGAUCAUCAUU [AK2.2 EXC Tryptophan A]: 0.148

Now for another entry.
-- ask Provide one value: measured apparent KD of K4 kissing-loop reporter of UGAUACCAGACUGAUACCAGCCACAGAGUCAAGACUCUGAUAAAGGUAACCAGUGAUGUUGGCCCUUGGCAGCAGUCUGGUAUCU [TheoBX 16 #SwitchBubble #StaticStem]
-- reply 0.166
